Data provenance: patent US20260258064A1

Molecular target: SARM1 (50-724) (Homo sapiens, UniProt Q6SZW1)
Sequence (Q6SZW1 50-724): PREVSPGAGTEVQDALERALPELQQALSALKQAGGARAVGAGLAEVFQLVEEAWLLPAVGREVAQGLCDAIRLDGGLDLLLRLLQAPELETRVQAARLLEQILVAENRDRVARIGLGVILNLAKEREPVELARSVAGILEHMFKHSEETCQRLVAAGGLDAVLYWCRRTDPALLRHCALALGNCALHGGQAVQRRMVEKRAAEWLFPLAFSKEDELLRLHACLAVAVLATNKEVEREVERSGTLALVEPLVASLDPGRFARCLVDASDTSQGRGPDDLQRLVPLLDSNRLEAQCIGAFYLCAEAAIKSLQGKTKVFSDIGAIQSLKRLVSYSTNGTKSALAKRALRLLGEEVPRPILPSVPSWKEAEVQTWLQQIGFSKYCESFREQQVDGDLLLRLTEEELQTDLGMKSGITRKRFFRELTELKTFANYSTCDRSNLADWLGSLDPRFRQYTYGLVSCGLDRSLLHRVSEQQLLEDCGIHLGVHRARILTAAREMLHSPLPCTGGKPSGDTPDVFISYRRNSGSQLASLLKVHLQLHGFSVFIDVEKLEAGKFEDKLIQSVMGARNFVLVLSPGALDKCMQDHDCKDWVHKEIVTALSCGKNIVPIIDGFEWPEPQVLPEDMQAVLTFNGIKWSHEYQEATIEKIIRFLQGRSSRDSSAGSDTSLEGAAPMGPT
Reported IC50 values are given for each entry in this list.

{"columns": ["molecule", "IC50"],
 "data": [
  ["Oc1ccc(C(F)(F)F)c(-n2cnnc2-c2nc3cc(C(F)(F)F)ccc3[nH]2)c1 [Compound 240]", "≤ 100 nM"]
]}

Hello, please tell me recorded IC50 for this one: CC(C)(O)c1cc(F)c2[nH]c(-c3nnccc3-c3cnccc3C(F)(F)F)nc2c1 [Compound 418] ≤ 100 nM

Assign IC50 to the following record: Fc1c(CC(F)F)cc(F)c2[nH]c(-c3nncn3-c3cnccc3C(F)(F)F)nc12 [Compound 329] ≤ 100 nM

For Cc1cnn(C)c1-c1ccc2[nH]c(-c3nncn3-c3cccc(Cl)c3Cl)nc2c1 [Example 81] , write its IC50. 100 to 500 nM

Respond only with IC50 recorded for CSc1nnc(-c2nc3cc(C(F)(F)F)ccc3[nH]2)n1-c1cccc(Cl)c1Cl [Compound 116] 100 to 500 nM

Kindly indicate its recorded IC50. Item: N#Cc1cccc(-n2cnnc2-c2nc3cc(C(F)(F)F)ccc3[nH]2)c1Cl [Compound 159] ≤ 100 nM
